# ASSAY OVERVIEW: recombinant barcode read abundance after kanamycin selection (control-corrected) (log10(CPM+1)); higher = more efficient recombination; sequences stand for … in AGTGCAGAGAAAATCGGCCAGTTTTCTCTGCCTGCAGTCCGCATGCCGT…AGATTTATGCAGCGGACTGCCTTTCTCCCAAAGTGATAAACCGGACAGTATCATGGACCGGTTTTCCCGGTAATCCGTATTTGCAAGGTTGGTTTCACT; site = the 11-nt target
Catalogue of recombinant barcode read abundance (log10) readings, one per entry.
READOUT NAME: recombinant barcode read abundance (log10)

| CHAIN | QUANTITATIVE READOUT |
| --- | --- |
| GGGCCTACTTGGGTTCTAACCTGTTGCTT (site GGGCCTACTGA) | 0.255 |
| CTTGGGCCTTGGGTTCTAACCTGTTGCCT (site CTTGGGCCTAG) | 0.417 |
| TAGACTACTTGGGTTCTAACCTGTTGCTC (site TAGACTACTCA) | 0.082 |
| ATCGGAGCTTGGGTTCTAACCTGTTGCCG (site ATCGGAGCTCG) | 0.497 |
| CCACTCCCTTGGGTTCTAACCTGTTGCCT (site CCACTACCTAG) | 0.166 |
| GGTACGACTTGGGTTCTAACCTGTTGCAG (site GGTACGCCTAT) | 0.336 |
| CTAGCGACTTGGGTTCTAACCTGTTGCAC (site CTAGCGACTGT) | 1.15 |
| GAGGGTTCTTGGGTTCTAACCTGTTGCAT (site GAGGGTTCTAT) | 2.66 |
| GAGTGGCCTTGGGTTCTAACCTGTTGCGT (site GAGTGGCCTAC) | 2.4 |
| GTCCCTCCTTGGGTTCTAACCTGTTGCCT (site GTCCCTCCTAC) | 0.116 |
| AGACCTTCTTGGGTTCTAACCTGTTGCCT (site AGACCTTCTAG) | 1.55 |
| TCCGTGGCTTGGGTTCTAACCTGTTGCCT (site TCCGTGTCTAG) | 0.244 |
| GACGGATCTTGGGTTCTAACCTGTTGCGT (site GACGGATCTAT) | 1.35 |
| GGAACCTCTTGGGTTCTAACCTGTTGCTT (site GGAACGTCTAA) | 0.0112 |
| CTCTCGCCTTGGGTTCTAACCTGTTGCCT (site CTCTCGCCTAG) | 0.168 |
| TAGGCGACTTGGGTTCTAACCTGTTGCCA (site TAGGCGACTTG) | 0.186 |
| CGATCGACTTGGGTTCTAACCTGTTGCAG (site CGACCGACTCT) | 0.401 |
| TAGATCACTTGGGTTCTAACCTGTTGCAT (site TAGATCACTAT) | 0.629 |
| CAAGCACCTTGGGTTCTAACCTGTTGCTT (site CAAGCACCTAA) | 0.187 |
| CTTGCATCTTGGGTTCTAACCTGTTGCCT (site GGGCACACTGT) | 0.293 |

---

# ASSAY OVERVIEW: recombinant UMI read abundance after kanamycin selection (control-corrected) (log10(CPM+1)); higher = more efficient recombination; extreme values may be limits of the assay; sequences stand for … in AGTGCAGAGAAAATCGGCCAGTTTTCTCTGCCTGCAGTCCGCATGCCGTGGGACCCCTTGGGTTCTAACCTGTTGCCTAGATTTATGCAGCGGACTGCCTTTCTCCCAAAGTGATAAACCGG…AGGTTGGTTTCACT; site = the 11-nt donor
If the reported recombinant UMI read abundance (log10) equals or exceeds 0.03, assign fulfilled. If not, assign not fulfilled.

| CHAIN | CAT |
| --- | --- |
| CTACTCTCATGGACCGGTTTTCCCGGTAATCCGTATTTGTA (site CTGCTCTCTTA) | fulfilled |
| GTTCGAGCATGGACCGGTTTTCCCGGTAATCCGTATTTGAT (site GTTCGAGCTAT) | fulfilled |
| CTGCTCTCATGGACCGGTTTTCCCGGTAATCCGTATTTGTA (site CTTCTCTCTTA) | fulfilled |
| GAGCGTTCATGGACCGGTTTTCCCGGTAATCCGTATTTGCG (site GAGCGTTCTCG) | fulfilled |
| GGATCGTCATGGACCGGTTTTCCCGGTAATCCGTATTTGCT (site CGATCATCTAG) | fulfilled |
| CTACTAACATGGACCGGTTTTCCCGGTAATCCGTATTTGTA (site CTACTAACTTG) | fulfilled |
| CTACTAACATGGACCGGTTTTCCCGGTAATCCGTATTTGTA (site CTACTAACTTC) | fulfilled |
| TCCCACACATGGACCGGTTTTCCCGGTAATCCGTATTTGTA (site CCCCACACTTA) | fulfilled |
| TAAGCTGCATGGACCGGTTTTCCCGGTAATCCGTATTTGTG (site TAAGCTGCTCA) | fulfilled |
| CTGGAAACATGGACCGGTTTTCCCGGTAATCCGTATTTGCT (site CTGGAAACTGG) | fulfilled |
| GGTAATCCATGGACCGGTTTTCCCGGTAATCCGTATTTGTT (site CGGAATCCTAA) | not fulfilled |
| ACGGTATCATGGACCGGTTTTCCCGGTAATCCGTATTTGCA (site ACGGTATCTTG) | fulfilled |
| TTTGAGGCATGGACCGGTTTTCCCGGTAATCCGTATTTGCT (site TTTGAGGCTAG) | fulfilled |
| AGACTAGCATGGACCGGTTTTCCCGGTAATCCGTATTTGTT (site AGACTAGCTAA) | fulfilled |
| ACAGGATCATGGACCGGTTTTCCCGGTAATCCGTATTTGCA (site ACAGGATCTTG) | fulfilled |
| TAGCTAGCATGGACCGGTTTTCCCGGTAATCCGTATTTGCA (site TAGCTAGCTTT) | not fulfilled |
| AACGACCCATGGACCGGTTTTCCCGGTAATCCGTATTTGAG (site AACGACCCTCT) | not fulfilled |
| GCGCCCTCATGGACCGGTTTTCCCGGTAATCCGTATTTGAC (site GCGCCCTCTGT) | fulfilled |
| TCCAATTCATGGACCGGTTTTCCCGGTAATCCGTATTTGTC (site TCCAATTCTGA) | not fulfilled |
| ACTAGGGCATGGACCGGTTTTCCCGGTAATCCGTATTTGGT (site ACTAGTGCTAC) | not fulfilled |
| CGGGAACCATGGACCGGTTTTCCCGGTAATCCGTATTTGAG (site CGGGAACCTCT) | not fulfilled |
| CCTGAGACATGGACCGGTTTTCCCGGTAATCCGTATTTGAG (site CCTGAGACTCT) | not fulfilled |
| TGGCCGCCATGGACCGGTTTTCCCGGTAATCCGTATTTGGC (site TGGCCGCCTGC) | not fulfilled |
| AGAAACGCATGGACCGGTTTTCCCGGTAATCCGTATTTGCT (site AGAAAAGCTAG) | fulfilled |
| GCGACAACATGGACCGGTTTTCCCGGTAATCCGTATTTGGT (site GCGACAACTAC) | fulfilled |
| GGAGGTACATGGACCGGTTTTCCCGGTAATCCGTATTTGAC (site GTAGGTACTGT) | not fulfilled |
| CGGCTGACATGGACCGGTTTTCCCGGTAATCCGTATTTGTT (site CGGCTGACTAA) | fulfilled |
| AGCCTTTCATGGACCGGTTTTCCCGGTAATCCGTATTTGAT (site AGCCTTTCTTT) | not fulfilled |

All values here come from the supplement of paper PMC11208160.
